The reported measurements were obtained from PubChem BioAssay AID330.

# Test system: P388 leukemia ip, CD2F1 mice, survival T/C
# Procedure Text: NCI In Vivo Anticancer Drug Screen. Data for tumor model P388 Leukemia (intraperitoneal) in CD2F1 (CDF1) mice
# Condition Label: endpoint: median survival time; dose: 25.0 mg/kg/injection; schedule: Q01DX009 (ip); vehicle: Klucel (hydroxypropylcellulose) (HPC); higher = longer survival
Toxic doses and inconclusive results are not listed.
Metric: T/C

Field: example entries. Status: answers known.
[
  {
    "Molecule": "CC1CC2(OC2C)C(=O)OC2CCN(C)C/C=C(/COC(=O)C1(C)O)C2=O (stereo not drawn)",
    "T/C": "99 % of control"
  },
  {
    "Molecule": "Clc1ccc2c(c1)C(c1ccccc1)=NCc1nncn1-2",
    "T/C": "103 % of control"
  }
]

Reported T/C for CC1(C)CCCC2(C)C1CCC1(C)OC3=CC(=O)C(O)=CC3=CC12 (stereo not drawn) was 119 % of control

====

# Test system: P388 leukemia ip, CD2F1 mice, survival T/C
# Procedure Text: NCI In Vivo Anticancer Drug Screen. Data for tumor model P388 Leukemia (intraperitoneal) in CD2F1 (CDF1) mice
# Condition Label: endpoint: median survival time; dose: 240.0 mg/kg/injection; schedule: Q01DX005 (ip); vehicle: Klucel (hydroxypropylcellulose) (HPC); higher = longer survival
Toxic doses and inconclusive results are not listed.
Metric: T/C

[
  {
    "Compound": "CCOc1ccccc1N=Nc1c(C)nn(C(N)=S)c1OCC",
    "System Name": "P388 leukemia ip, CD2F1 mice, survival T/C",
    "Reported Measurement": "115 % of control"
  },
  {
    "Compound": "Nc1nc(N)c2nc(SCc3ccc(Cl)cc3)c(N)nc2n1",
    "System Name": "P388 leukemia ip, CD2F1 mice, survival T/C",
    "Reported Measurement": "94 % of control"
  },
  {
    "Compound": "NC1=C(O)C(=O)C(c2cccnc2)O1 (configuration not stated)",
    "System Name": "P388 leukemia ip, CD2F1 mice, survival T/C",
    "Reported Measurement": "86 % of control"
  },
  {
    "Compound": "CCOc1ccccc1N=Nc1c(C)nc(N)nc1OCC",
    "System Name": "P388 leukemia ip, CD2F1 mice, survival T/C",
    "Reported Measurement": "110 % of control"
  }
]

COc1ccc(C2SCC(=O)N2c2nncs2)c(OC)c1 (configuration not stated) has a reported T/C of 110 % of control

The compound listed as CN=C1OC2(c3ccccc3)C3=C(OC(=NC)N2C)C(=O)OC3(c2ccccc2)N1C (configuration not stated) shows T/C equal to 91 % of control

Looking up COc1ccc(C(c2cc3c(cc2O)OCO3)N2CCOCC2)c(OC)c1 (configuration not stated) , I see its T/C listed as 110 % of control

====

Measured T/C, listed per entry for reference.
# Tested on: P388 leukemia ip, CD2F1 mice, survival T/C
# Procedure Text: NCI In Vivo Anticancer Drug Screen. Data for tumor model P388 Leukemia (intraperitoneal) in CD2F1 (CDF1) mice
# Condition Label: endpoint: median survival time; dose: 100.0 mg/kg/injection; schedule: Q01DX009 (ip); vehicle: saline with Tween-80; higher = longer survival
Toxic doses and inconclusive results are not listed.

Below, 5 molecules whose answers are already recorded.
[
  {
    "Molecule": "COc1cc2c(cc1I)-c1c(cc(OC)c(OC)c1OC)CC[C@@H]2NC(C)=O",
    "T/C": "95 % of control"
  },
  {
    "Molecule": "CCOC(=O)Nc1nccs1",
    "T/C": "102 % of control"
  },
  {
    "Molecule": "CC1C(N)CC2CC1C2(C)C (stereo not given)",
    "T/C": "112 % of control"
  },
  {
    "Molecule": "CCOc1ccc(Br)cc1/C=N\\N=C\\c1cc(Br)ccc1OCC",
    "T/C": "90 % of control"
  },
  {
    "Molecule": "CC1(C)CC2(OC2c2ccc([N+](=O)[O-])cc2)C(=O)c2ccccc21 (stereo not given)",
    "T/C": "90 % of control"
  }
]

Sample CC(=O)c1cccc2cccc([N+](=O)[O-])c12 ; T/C observed: 104 % of control

Input c1ccc2c(c1)Nc1ccc3ccccc3c1S2 . Output T/C: 96 % of control

O=c1c(Cl)c2oc3ccc([N+](=O)[O-])cc3nc-2c(Cl)c1Cl yielded T/C of 107 % of control

Notebook: CC(=O)C(Cc1ccccc1)NC(=O)C(F)(F)F (stereo not given) , T/C read as 90 % of control

Note to self: T/C recorded for CN(C)c1ccc2c(c1)Cc1cc(N=C3C=CC(=O)O3)ccc1-2 was 100 % of control

====

# System: P388 leukemia ip, CD2F1 mice, survival T/C
# Procedure Text: NCI In Vivo Anticancer Drug Screen. Data for tumor model P388 Leukemia (intraperitoneal) in CD2F1 (CDF1) mice
# Condition Label: endpoint: median survival time; dose: 200.0 mg/kg/injection; schedule: Q01DX005 (ip); vehicle: saline; higher = longer survival
Toxic doses and inconclusive results are not listed.
Metric: T/C

Recorded T/C, per entry:
[
  {
    "Compound": "COC(=O)c1c[n+]([O-])ccc1OC",
    "T/C": "102 % of control"
  },
  {
    "Compound": "[CH3][Ge]1([CH3])[CH]=CC(O)[CH2]1 (centres undefined)",
    "T/C": "100 % of control"
  },
  {
    "Compound": "CN1CCC(=C(C#N)C(=O)O)CC1",
    "T/C": "103 % of control"
  }
]

// next entry
Form field T/C, entry OCC1OC(n2cnc3c(Cl)ncnc32)CC1O (centres undefined) : 102 % of control

====

# System: P388 leukemia ip, CD2F1 mice, survival T/C
# Procedure Text: NCI In Vivo Anticancer Drug Screen. Data for tumor model P388 Leukemia (intraperitoneal) in CD2F1 (CDF1) mice
# Condition Label: endpoint: median survival time; dose: 100.0 mg/kg/injection; schedule: Q01DX009 (ip); vehicle: saline with Tween-80; higher = longer survival
Toxic doses and inconclusive results are not listed.
Metric: T/C

[
  {
    "Structure": "CN(C)c1ccc(C(=O)c2ccc(N(C)C)cc2)cc1",
    "Reported Measurement": "100 % of control"
  },
  {
    "Structure": "CC(C)(C)N=C(CCC(C#N)(C#N)CCC(=NC(C)(C)C)Nc1ccccc1C#N)Nc1ccccc1C#N",
    "Reported Measurement": "92 % of control"
  },
  {
    "Structure": "COC(=O)CC(OC)OC",
    "Reported Measurement": "100 % of control"
  },
  {
    "Structure": "COc1cccc(OC)c1[N+](=O)[O-]",
    "Reported Measurement": "97 % of control"
  }
]

Kindly consider the entry below.
# T/C (molecule: O=c1[nH]c(CN2CCOCC2)ncc1C1CCCCC1 ) is 100 % of control

====

# System: P388 leukemia ip, CD2F1 mice, survival T/C
# Procedure Text: NCI In Vivo Anticancer Drug Screen. Data for tumor model P388 Leukemia (intraperitoneal) in CD2F1 (CDF1) mice
# Condition Label: endpoint: median survival time; dose: 200.0 mg/kg/injection; schedule: Q01DX005 (ip); vehicle: saline with Tween-80; higher = longer survival
Inconclusive results and toxic doses are left out.
Attribute: T/C

Examples with their reported T/C follow.
[
  {
    "Molecule": "CCOC(=O)CC(=O)c1sc(Nc2ccccc2)c(C(N)=O)c1N",
    "Metric": "T/C",
    "Reported Measurement": "94 % of control"
  },
  {
    "Molecule": "CCn1c2ccccc2c2cc(NC(=S)NC(=O)c3cccs3)ccc21",
    "Metric": "T/C",
    "Reported Measurement": "92 % of control"
  },
  {
    "Molecule": "CCOC(=O)c1ccc2c(=O)[nH]nc(CO)c2c1",
    "Metric": "T/C",
    "Reported Measurement": "96 % of control"
  }
]

Notebook: CNC(=O)N(C)C(=O)c1ccncc1C(=O)N(C(=O)NC1CCCCC1)C1CCCCC1 , T/C read as 89 % of control

// O=C(Nc1ccccc1-c1ccccc1)c1cccc2ccccc12 : T/C value = 90 % of control

Documented T/C of CCOC(=O)C1=C(C)O/C(=C/c2cccc(Cl)c2)C1=O : 113 % of control

Reported T/C of O=C1OC2CCCC1O2 (stereo not drawn) : 98 % of control

Field T/C (entry NC(Cc1ccc(O)cc1)C(=O)N/N=C/c1ccccc1O (stereo not drawn) ) reads 113 % of control

response.value for Nc1nc(-c2ccccc2)c(Br)c(=O)[nH]1 (field: T/C) = 105 % of control

// recorded T/C for CN(C)c1ccc(C2(c3ccc(N(C)C)cc3)NNC(=O)c3ccccc32)cc1 : 86 % of control
